test system: Serum-Lipoproteine; assay: Change of serum and lipoprotein-fraction cholesterol in rats after 7 days of oral treatment (ultracentrifuge fractionation, CHOD-PAP cholesterol); format: in vivo, männlichen Wistar-Ratten; conditions: Rattus norvegicus, 168 h; 10 mg/kg / Tag, oral (gavage), 7 days, male Wistar rats; read-out: Cholesterolveränderung in %, bezogen auf die Kontrollgruppe in den Serum-Lipoprotein-Fraktionen LDL
quantity kind: change in vivo at 10 mg/kg
Answer as a quantity: numeral, then unit.

Query (molecule): Cc1cc(Cn2ccnc2)cc(C)c1OCc1ccc(C(=O)C(C)(C)CCl)cc1 ; field requested: change in vivo at 10 mg/kg
-52%

Another: CC(C)(C)C(=O)c1ccc(COc2c(Cl)cc(Cn3ccnc3)cc2Cl)cc1
-32%

Another: Cc1ccc(Cn2ccnc2)cc1 [1-(4-Methyl-benyl)-imidazol, 1-(4-Methylbenzyl)-imidazol, reference compound]
-3%

Another: Cc1cc(Cn2ccnc2)cc(C)c1OCc1ccc(C(=O)C(C)(C)C)cc1
-45%

* * *

tested on: Serum-Lipoproteine; assay: Change of serum and lipoprotein-fraction cholesterol in rats after 7 days of oral treatment (ultracentrifuge fractionation, CHOD-PAP cholesterol); format: in vivo, männlichen Wistar-Ratten; settings: Rattus norvegicus, 168 h; 10 mg/kg / Tag, oral (gavage), 7 days, male Wistar rats; read-out: Cholesterolveränderung in %, bezogen auf die Kontrollgruppe in den Serum-Lipoprotein-Fraktionen LDL
Kind request: treat -50% as inclusive, so change in vivo at 10 mg/kg at -50% or higher is yes (1), anything lower is no (0).

Tell me whether change in vivo at 10 mg/kg is at least -50% here: Cc1cc(Cn2ccnc2)cc(Cl)c1OCc1ccc(C(=O)C(C)(C)C)cc1 [Beispiel 1]
no (0)

Another: Cc1cc(Cn2ccnc2)cc(C)c1OCc1ccc(C(=O)c2ccc(Cl)cc2)cc1 [Beispiel 1.46]
yes (1)

Another: Cc1cc(Cn2ccnc2)cc(Cl)c1OCc1ccc(C(O)C(C)(C)C)cc1 (centres unmarked) [Beispiel 5]
no (0)

Another: Cc1cc(Cn2cncn2)cc(Cl)c1OCc1ccc(C(=O)C(C)(C)C)cc1 [Beispiel 1.19]
yes (1)

Another: Cc1cc(Cn2ccnc2)cc(C)c1OCc1ccc(C(O)C(C)(C)C)cc1 (centres unmarked) [Beispiel 2.1]
no (0)

* * *

tested on: Serum-Lipoproteine; experiment: Change of serum and lipoprotein-fraction cholesterol in rats after 7 days of oral treatment (ultracentrifuge fractionation, CHOD-PAP cholesterol); type: in vivo, männlichen Wistar-Ratten; conditions: Rattus norvegicus, 168 h; 3 mg/kg / Tag, oral (gavage), 7 days, male Wistar rats; read-out: Cholesterolveränderung in %, bezogen auf die Kontrollgruppe in den Serum-Lipoprotein-Fraktionen HDL
quantity kind: change in vivo at 3 mg/kg

# value lookup — system Serum-Lipoproteine, readout change in vivo at 3 mg/kg, item Cc1cc(Cn2ccnc2)cc(Cl)c1OCc1ccc(C(O)C(C)(C)C)cc1 (centres unmarked)
18%

Another: Cc1cc(Cn2ccnc2)cc(C)c1OCc1ccc(C(=O)C(C)(C)C)cc1
2%

Another: Cc1ccc(Cn2ccnc2)cc1 [1-(4-Methyl-benyl)-imidazol, 1-(4-Methylbenzyl)-imidazol, reference compound]
18%

Another: Cc1cc(Cn2ccnc2)cc(Cl)c1OCc1ccc(C(=O)C(C)(C)C)cc1
3%

Another: Cc1cc(Cn2ccnc2)cc(C)c1OCc1ccc(C(=O)C(C)(C)CCl)cc1
-11%
